test system: Bovine Phosphodiesterase; test: Phosphodiesterase inhibiting activity (cAMP substrate, remaining cAMP measured by HPLC); assay type: biochemical; conditions: Concentration 1.56 µg/ml
Observed Property: Inhibiting Activity (%)
One number for each entry, in %.

Answer for every listed entry: what is its Inhibiting Activity (%)? The entries follow.
1. O=c1c(-c2ccc(O)c(-c3cc(-c4coc5cc(O)cc(O)c5c4=O)ccc3O)c2)coc2cc(O)cc(O)c12 [NA23063C]
2. O=c1c(-c2ccc(O)c(-c3cc(-c4coc5cc(O)cc(O)c5c4=O)ccc3O)c2)coc2cc(O)ccc12 [NA23063D]
3. O=c1c(-c2ccc(Oc3cc(-c4coc5cc(O)cc(O)c5c4=O)ccc3O)cc2)coc2cc(O)ccc12 [NA23063B1]
4. O=c1c(-c2ccc(O)c(Oc3ccc(-c4coc5cc(O)cc(O)c5c4=O)cc3)c2)coc2cc(O)ccc12 [NA23063B2]
5. O=c1c(-c2ccc(Oc3cc(-c4coc5cc(O)cc(O)c5c4=O)ccc3O)cc2)coc2cc(O)cc(O)c12 [NA23063A]

66.5
34.6
38.2
38.2
57.8

This collection of values is drawn from patent EP0829477A1.
